The following molecules are shown together with reported SRR values.
# System: Canis familiaris
# Assay info: Activity against ouabain-induced ventricular arrhythmia was measured as percent of sinus rhythm recovery at dose of 4 mg/kg iv
# Type: functional, Canis lupus familiaris, Cardiac ventricle
Parameter: SRR (%)

COc1c(NC(C)=O)c(OCCN2CCCC2)c(OC)c2occc12 33
COc1c(NC(=O)N(C)C)c(OCCN2CCCCC2)c(OC)c2occc12 50
CNC(=O)Nc1c(OCCCCN2CCCCC2)c(OC)c2occc2c1OC 100
CNC(=O)Nc1c(OCCNC(C)C)c(OC)c2occc2c1OC 100
COc1c(NC=O)c(OCCN2CCCCC2)c(OC)c2occc12 100
CNC(=O)Nc1c(OCCCN2CCCC2)c(OC)c2occc2c1OC 100

* * *

The following molecules are shown together with reported LD50 values.
# Assay info: Toxicity estimated in mouse as LD50 by intravenous administration
# Format: organism-based
# Experimental setup: in vivo
Parameter: LD50 (mg/kg)

Molecule	Parameter	Reported value
COc1c(NC(=O)c2ccccc2)c(OCCN2CCCCC2)c(OC)c2occc12	LD50	2.5
CCOC(=O)Nc1c(OCCN2CCCCC2)c(OC)c2occc2c1OC	LD50	13
COc1c(NC(C)=O)c(OCCN2CCOCC2)c(OC)c2occc12	LD50	200
CNC(=O)Nc1c(OCCCN2CCCCC2)c(OC)c2occc2c1OC	LD50	42.5
COc1c(NC(=O)NC2CCCCC2)c(OCCN2CCCCC2)c(OC)c2occc12	LD50	42
COc1c(NC(=O)C(C)C)c(OCCN2CCCCC2)c(OC)c2occc12	LD50	78
COc1c(NC(C)=O)c(OCCN(C)C)c(OC)c2occc12	LD50	138
COc1c(NC(=O)NC(C)C)c(OCCN2CCCCC2)c(OC)c2occc12	LD50	25
CNC(=O)Nc1c(OC)c(OC)c2occc2c1OCCN1CCCCC1	LD50	200
CNC(=O)Nc1c(OCCCCN2CCCC2)c(OC)c2occc2c1OC	LD50	36
CCOc1c(NC(=O)NC)c(OCCN2CCCCC2)c(OC)c2occc12	LD50	10
COc1c(NC(=O)OC(C)C)c(OCCN2CCCCC2)c(OC)c2occc12	LD50	10
CNC(=O)Nc1c(OCCN(C)C)c(OC)c2occc2c1OC	LD50	100
CNC(=O)Nc1c(OCCN2CCOCC2)c(OC)c2occc2c1OC	LD50	100
CNC(=O)Nc1c(OCCCN2CCCC2)c(OC)c2occc2c1OC	LD50	32
COc1c(NC(=O)OC2CCCCC2)c(OCCN2CCCCC2)c(OC)c2occc12	LD50	15
CCNCCOc1c(NC(C)=O)c(OC)c2ccoc2c1OC	LD50	68
COc1c(NC(C)=O)c(OCCN2CCCCCCC2)c(OC)c2occc12	LD50	21
CC(C)N(CCC(C(N)=O)(c1ccccc1)c1ccccn1)C(C)C (stereo not drawn) [DISOPYRAMIDE]	LD50	60
CNCCOc1c(NC(C)=O)c(OC)c2ccoc2c1OC	LD50	96
CNC(=O)Nc1c(OCCN2CCCCC2)cc2occc2c1OC	LD50	100
COc1c(NC(=O)C2CCCCC2)c(OCCN2CCCCC2)c(OC)c2occc12	LD50	7
COc1c(NC(=O)C(F)(F)F)c(OCCN2CCCCC2)c(OC)c2occc12	LD50	22
